Measured Inhibition by item
# Test system: Plasmodium falciparum
# test-details: GSK_TCMDC: Inhibition of Plasmodium falciparum Dd2 in whole red blood cells, using parasite LDH activity as an index of growth. Test compounds present at 2uM
# Assay type: functional
metric: Inhibition (%)

O=C(/C=C/c1ccc(Cl)c(Cl)c1)NCCCCCN1CCC(CCNC(=O)C2(c3ccc(Cl)cc3)CC2)CC1 ... 16
COc1ccc(C=C2SC(=N)N(c3ccccc3OC)C2=O)cc1 ... 95
CC(C)NC(=N)NN=Cc1ccc(Cl)c(Cl)c1 ... 12
O=C(NCCCCN1CCN(c2nsc3ccccc23)CC1)c1ccccc1C(=O)NCCCCN1CCN(c2nsc3ccccc23)CC1 ... 22
O=C(Nc1cccc(CN2CCCN(CCc3ccccc3)CC2)c1)c1cc2ccccc2s1.O=C(O)C(F)(F)F ... 39
O=C(NC1CCCc2ccccc21)[C@@H]1CCCN1C(=O)c1ccc(O)c(-c2cccc([N+](=O)[O-])c2)c1 (stereo partly drawn) ... 99
Fc1ccccc1COc1ccc(Nc2ncnc3ccc(I)cc23)cc1Cl ... 37
CC(CN(C)C)C(=O)Nc1cccc(-c2ccc(-c3nc4cc(F)ccc4[nH]3)cc2)c1 (stereo not drawn) ... 100
COc1ccc2nccc([C@@H](O)CN3CCC(NCC(=O)Nc4cc(F)cc(F)c4)CC3)c2n1.O=C(O)C(=O)O ... 28
O=c1cc(NCCCNC2CCCc3c2ccc2ccccc32)[nH]c2ccccc12 (stereo not drawn) ... 30
O=C(Nc1cccc(-c2nn3ncccc3c2-c2ccnc(Nc3ccccc3)n2)c1)c1c(F)cccc1F ... 96
COc1ccc(CNCc2ccc(-c3ccc(-c4nc5cccc(C)c5[nH]4)cc3)cc2)cc1.O=C(O)C(F)(F)F ... 97
CN1CCCC1CCNc1ncc2c(-c3ccc(NC(=O)Nc4cc(C(F)(F)F)ccc4F)c(F)c3)nn(C)c2n1.O=C(O)C(F)(F)F (stereo not drawn) ... 90
Cc1ccc(S(=O)(=O)NC2CCN(CCNC(=O)Nc3cc(C)nc4ccccc34)C2)cc1 (stereo not drawn) ... 42
COc1ccc(-c2cccc(NC(=O)c3ccc(C#N)cc3)c2)cc1CNC(C)C.O=C(O)C(F)(F)F ... 14
CCOc1ccc2nc3cc([N+](=O)[O-])ccc3c(N)c2c1 ... 100
COc1cc2nc(NCc3ccccc3)nc(NCc3ccccc3)c2cc1OC ... 100
Cc1ccc(F)c(OCC2CCN(c3ncc(C(=O)NC4CC4)cc3Cl)CC2)c1 ... 95
Cc1cccc2nc(-c3cccc(-c4ccc(NC(=O)c5cccnc5)cc4)c3)[nH]c12 ... 45
Fc1ccc(CNc2ccc3ncc(-c4cccnc4)n3n2)cc1 ... 7
OCCCCCCNc1ccnc2[nH]c3ccc(I)cc3c12 ... 61
CCN(CC)CCN(Cc1ccc(-c2ccc(C(F)(F)F)cc2)cc1)C(=O)Cn1c(SCc2ccc(F)c(F)c2F)nc(=O)c2c1CCC2.O=C(O)C(O)C(O)C(=O)O ... 96
Cc1cc(NCCC(=O)NCCOc2ccccc2)nc(NCCc2ccc(F)cc2)n1.O=C(O)C(F)(F)F ... 4

====

# Test system: Plasmodium falciparum
# test-details: GSK_TCMDC: Inhibition of Plasmodium falciparum 3D7 in whole red blood cells, using parasite LDH activity as an index of growth. Test compounds present at 2uM
# Assay type: functional
metric: Inhibition (%)

CC(C)Oc1ccc(C=CC(=O)Nc2noc3ccccc23)cc1 ... 96
CN1CCN(CCCN(Cc2ccc(-c3cccc(CNCc4ccc5c(c4)OCO5)c3)cc2)C(=O)Nc2ccccc2)CC1.O=C(O)C(F)(F)F ... 100
NCCCNc1nc(Nc2cccc(C(N)=O)c2)c2c(=O)[nH]ccc2n1.O=C(O)C(F)(F)F ... 99
FC(F)(F)c1cnc(Sc2nnc(-c3ccco3)o2)c(Cl)c1 ... 98
Cc1cccc(Cl)c1Nc1nnc(-c2cccc(C(=O)NC[C@@H]3CC[C@H]4C[C@@H]3C4(C)C)c2)o1 ... 85
COc1ccc(-c2ccc(CNC(=O)c3ccc(Cl)cc3)c(F)c2)cc1CN1CCCN(C)CC1.O=C(O)C(F)(F)F ... 99
COc1ccc(C=NN=c2cc[nH]c3ccccc23)c2ccccc12 ... 100

====

# System: Plasmodium falciparum
# test-details: GSK_TCMDC: Inhibition of Plasmodium falciparum 3D7 in whole red blood cells, using parasite LDH activity as an index of growth. Test compounds present at 2uM
# Format: functional
metric: Inhibition (%)

CN1N=C2c3ccccc3CCC2C1c1ccc(C#N)cc1 (centres undefined) ... 95
O=C(O)C(F)(F)F.OCC1CCN(Cc2ccc(-c3ccc(-c4nc5cc(F)ccc5[nH]4)cc3)cc2)CC1 ... 100
O=C(O)C(F)(F)F.OCCN1CCN(Cc2ccc(-c3ccc(-c4nc5cc(F)ccc5[nH]4)cc3)cc2)CC1 ... 100
COc1ccc2nccc(N(C)CC3(O)CCN(CC(O)c4ccc5c(c4)NC(=O)CS5)CC3)c2n1.Cl (centres undefined) ... 100

====

# Test system: Plasmodium falciparum
# test-details: GSK_TCMDC: Inhibition of Plasmodium falciparum Dd2 in whole red blood cells, using parasite LDH activity as an index of growth. Test compounds present at 2uM
# Format: functional
Measured Inhibition by item
metric: Inhibition (%)

Cc1ccc(NC(=O)Nc2ccc(Cn3ncc(N4CCCNCC4)c(Cl)c3=O)cc2)cc1.O=C(O)C(F)(F)F ... 13
COc1ccc(Nc2nc(NCc3ccco3)c3ccccc3n2)cc1.Cl ... 76
CCN(CCNc1nc(NCCc2cnc[nH]2)nc(N(CCC#N)Cc2ccccc2)n1)c1cccc(C)c1 ... 92
O=C(NCCCN1CCC(N2CCCCC2)CC1)C1=Cc2cc(Br)ccc2OC1 ... 19
Cn1c(N)c(N=O)c(=O)[nH]c1=O ... 82
CC(Cc1ccc(OCCN2CCN(c3cccc(Cl)c3)CC2)cc1)NCC(O)c1cccc(C(F)(F)F)c1.Cl (configuration not stated) ... 98
Oc1ccc(-c2ccccc2)cc1CN1CCCCC1 ... 70
Nc1ncc(-c2cccc(CCN3CCOCC3)c2)cc1-c1nc2cc(Br)ccc2[nH]1.O=C(O)C(F)(F)F ... 98
COc1ccccc1NC(=O)Nc1ccc(-c2ccc(-c3nc4cccc(C)c4[nH]3)s2)cc1 ... 99
CCN(CC)CCN(Cc1ccc(-c2ccc(C(F)(F)F)cc2)cc1)C(=O)Cn1c(CCc2ccc(F)cc2)nc(=O)c2ccccc21.O=C(O)C(O)C(O)C(=O)O ... 58
COc1ccc(NC(=O)Nc2ccc(-c3ccncc3)c(Cl)c2)cc1N1CCN(C)CC1 ... 62
Cc1ccc(-c2ccn(Cc3cccc(OCc4ccccc4)c3)n2)cn1.Cc1ccc(-c2ccnn2Cc2cccc(OCc3ccccc3)c2)cn1 ... 64
Cc1ccc(NS(=O)(=O)c2ccc(C(C)N3CCC(N4CCCCC4)CC3)cc2)cc1C (configuration not stated) ... 82
CC1CCCCN1S(=O)(=O)c1ccc(NC(=O)c2cc(-c3ccccc3O)n[nH]2)cc1 (configuration not stated) ... 96
Cc1ccc(S(=O)(=O)N2CCN(C(=O)c3cc(-c4cccs4)n[nH]3)CC2)c(C)c1 ... 81
CC(CCCCOCCc1ccccc1)NCC(O)c1cc(Cl)c(N)c(Cl)c1 (configuration not stated) ... 95
Cc1cccc(-c2nn(-c3ccccc3)c3[nH]c(=O)c(CNC4CCCC4)cc23)c1 ... 97
CN1CCC(NCc2cccc(-c3cccc(-c4nc5cc(C(F)(F)F)ccc5[nH]4)c3)c2)CC1.O=C(O)C(F)(F)F ... 100
N.Nc1nc2c(ncn2COC2COP(=O)(O)OC2)c(=O)[nH]1 (configuration not stated) ... 54
Cc1ccn2cc(-c3ccc(NC(=O)c4ccc(Br)o4)cc3)nc2c1 ... 41
O=C(Cn1c(CCc2cccc(F)c2F)cc(=O)c2cccnc21)N(CCn1ccnc1)Cc1ccc(-c2ccc(C(F)(F)F)cc2)cc1 ... 62
Cc1[nH]c2ccccc2c1C(=O)CSc1nn(-c2ccccc2)c(=S)s1 ... 99

====

# System: Plasmodium falciparum
# test-details: GSK_TCMDC: Inhibition of Plasmodium falciparum Dd2 in whole red blood cells, using parasite LDH activity as an index of growth. Test compounds present at 2uM
# Format: functional
metric: Inhibition (%)

CCn1c(-c2nonc2N)nc2c(-c3cccc(NC(=O)Nc4ccccc4OC)c3)ncc(OCCCN)c21.O=C(O)C(F)(F)F ... 58
O=C(Nc1cccc(-c2cccc(-c3nc4cc(F)ccc4[nH]3)c2)c1)Nc1ccc2c(c1)OCO2 ... 49
O=C(O)C(F)(F)F.c1ccc(CCNc2ccnc(Nc3ccc4[nH]nnc4c3)n2)cc1 ... 95

====

# Test system: Plasmodium falciparum
# test-details: GSK_TCMDC: Inhibition of Plasmodium falciparum Dd2 in whole red blood cells, using parasite LDH activity as an index of growth. Test compounds present at 2uM
# Format: functional
Strictly below 70% in Inhibition: 1 (yes). Otherwise: 0 (no).

CN(C)c1ccc(C=C2SC(=N)N(c3nccs3)C2=O)cc1 ... 1 (yes)
CN(C)CCN(C)Cc1nc(-c2ccc3c(Nc4ccc(Oc5ccccc5)cc4)ccnc3c2)cs1 ... 0 (no)
Oc1ccc(Cl)cc1CN1CCCC(COC(c2ccc(F)cc2)c2ccc(F)cc2)C1 (centres undefined) ... 0 (no)
CN(c1ccccc1C(=O)Nc1cc(Cl)ccc1Oc1ccccc1)S(=O)(=O)c1ccccc1 ... 1 (yes)
FC(F)(F)c1cccc(N=C(S)NN=Cc2ccccn2)c1 ... 0 (no)
CC(C)(C)c1ccc(CNC(=O)c2cc(CNC3CCNC3)ccc2O)cc1 (centres undefined) ... 1 (yes)
CN1CCN(c2ccc(Nc3ccnc4ccc(-c5ccccc5)cc34)cc2)CC1 ... 0 (no)
CCNc1cc(C(=O)N[C@@H](Cc2ccccc2)[C@H](O)CNC2(C)CCCCC2)cc(N2CCCCS2(=O)=O)c1.Cl ... 0 (no)

// provenance: ChEMBL document CHEMBL1157539
